Sequence of the target: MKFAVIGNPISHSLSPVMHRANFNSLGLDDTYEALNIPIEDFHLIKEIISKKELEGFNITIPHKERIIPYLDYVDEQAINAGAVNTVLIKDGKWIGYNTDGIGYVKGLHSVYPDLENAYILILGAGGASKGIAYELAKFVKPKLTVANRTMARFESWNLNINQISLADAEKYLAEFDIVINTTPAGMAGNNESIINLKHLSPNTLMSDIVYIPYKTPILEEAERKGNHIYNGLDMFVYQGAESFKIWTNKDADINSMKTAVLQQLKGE
PROPERTY_LABEL: pKi
Convention used: pKi is expressed as -log10 of the molar concentration.

Fill in the blank: the reported pKi of O=C(O[C@@H]1Cc2c(O)cc(O)cc2O[C@H]1c1cc(O)c(O)c(O)c1)c1cc(O)c(O)c(O)c1 [(-)-Gallocatechin gallate] is ____.
5.61

====

Molecular target: SaSDH (Staphylococcus aureus shikimate dehydrogenase) (Staphylococcus aureus, UniProt Q5HFG5)
Sequence (Q5HFG5 1-268): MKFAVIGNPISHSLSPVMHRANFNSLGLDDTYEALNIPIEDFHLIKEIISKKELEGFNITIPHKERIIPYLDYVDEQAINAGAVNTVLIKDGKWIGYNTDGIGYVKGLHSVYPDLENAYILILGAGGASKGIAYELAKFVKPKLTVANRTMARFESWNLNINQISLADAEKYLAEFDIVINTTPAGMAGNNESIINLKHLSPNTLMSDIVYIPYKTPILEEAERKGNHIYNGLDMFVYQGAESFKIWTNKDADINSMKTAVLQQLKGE
Assay: SaSDH enzyme inhibition
Type: biochemical
Settings: 1 mM NADP, 1 mM SHK, 1.54 ng SaSDH, pH 9.0, 37 °C, 30 min
PROPERTY_LABEL: IC50

Look over these answered cases.
- COMPOUND: "COc1ccc([C@@H]2CC(=O)c3c(O)cc(O[C@@H]4O[C@H](CO[C@@H]5O[C@@H](C)[C@H](O)[C@@H](O)[C@H]5O)[C@@H](O)[C@H](O)[C@H]4O)cc3O2)cc1O"
  REPORTED_VALUE: "< 100 µM"
- COMPOUND: "O=C(O[C@@H]1Cc2c(O)cc(O)cc2O[C@H]1c1cc(O)c(O)c(O)c1)c1cc(O)c(O)c(O)c1 [(-)-Gallocatechin gallate]"
  REPORTED_VALUE: "< 100 µM"

// query IC50 value for entry CC=C1[C@H](O[C@@H]2O[C@H](CO)[C@@H](O)[C@H](O)[C@H]2O)OC=C(C(=O)OC)[C@H]1CC(=O)OC[C@H]1O[C@@H](OCCc2ccc(O)cc2)[C@H](O)[C@@H](O)[C@@H]1O (stereo in doubt) [Specneuzhenide]
< 100 µM

====

Target chain: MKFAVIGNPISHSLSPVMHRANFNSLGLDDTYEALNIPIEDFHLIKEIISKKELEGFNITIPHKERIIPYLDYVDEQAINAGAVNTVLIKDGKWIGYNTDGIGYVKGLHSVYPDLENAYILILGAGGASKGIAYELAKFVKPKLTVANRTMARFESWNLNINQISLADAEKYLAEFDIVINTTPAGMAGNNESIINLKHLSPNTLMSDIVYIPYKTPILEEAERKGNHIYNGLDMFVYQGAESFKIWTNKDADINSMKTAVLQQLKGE
PROPERTY_LABEL: pKd
Note: pKd values are expressed as the negative base-10 logarithm of concentration in M.

Consider the molecule shown here: O=C(O[C@@H]1Cc2c(O)cc(O)cc2O[C@H]1c1cc(O)c(O)c(O)c1)c1cc(O)c(O)c(O)c1 [(-)-Gallocatechin gallate] What is its recorded pKd?
4.35
